Tested on: IL-6
Assay: Inhibition of IL-6 production by mouse peritoneal macrophages (ELISA)
Assay type: cell-based, mice
Conditions: Macrophage, 10 μg/ml, 48 hours, read-out: Inhibitory rate (%) IL-6
Description: C57BL/6CrSlc male mice were intraperitoneally injected with 2.0 ml of 3% Brewer tioglycolate medium. Three days later, macrophages were collected from the abdominal cavity with 5.0 ml Hank's balanced salt solution, and then equally divided into each well of a 48-well plate using RPMI 1640 medium supplemented with 10% FBS (Fetal Bovine Serum), followed by incubation in a CO2 incubator for 1 hour. […]
inhibition at 10 µg/mL vs 50%: at or above is MET, below is NOT MET.

QUERY: Please indicate if the recorded inhibition at 10 µg/mL for COC(=O)COc1ccc(/C=C/C(=O)NCCc2ccncc2)cc1 [Example 30] meets or exceeds 50%.
RESULT: MET

QUERY: Please indicate if the recorded inhibition at 10 µg/mL for CCOC(=O)COc1ccc(/C=C/C(=O)NCCc2cccnc2)cc1 [Example 10] meets or exceeds 50%.
RESULT: MET

QUERY: Please indicate if the recorded inhibition at 10 µg/mL for Cl.O=C(O)COc1ccc(/C=C/C(=O)NCc2cccnc2)cc1 [Example 36, hydrochloride] meets or exceeds 50%.
RESULT: MET

QUERY: Please indicate if the recorded inhibition at 10 µg/mL for COC(=O)COc1ccc(/C=C/C(=O)NCCc2ccccn2)cc1 [Example 16] meets or exceeds 50%.
RESULT: MET

QUERY: Please indicate if the recorded inhibition at 10 µg/mL for COC(=O)COc1ccc(/C=C/C(=O)NCc2cccnc2)cc1 [Example 7] meets or exceeds 50%.
RESULT: NOT MET

QUERY: Please indicate if the recorded inhibition at 10 µg/mL for COC(=O)COc1ccc(/C=C/C(=O)NCc2ccccn2)cc1 [Example 29] meets or exceeds 50%.
RESULT: NOT MET

QUERY: Please indicate if the recorded inhibition at 10 µg/mL for CCOC(=O)COc1ccc(/C=C/C(=O)N(C)Cc2cccnc2)cc1 [Example 2] meets or exceeds 50%.
RESULT: MET

QUERY: Please indicate if the recorded inhibition at 10 µg/mL for CCOC(=O)COc1ccc(/C=C/C(=O)NCc2cccnc2)cc1 [Example 1] meets or exceeds 50%.
RESULT: NOT MET

---

Exercise: state measured inhibition at 10 µM for each of the compounds provided.
System: IL-12
Assay: Inhibition of IL-12 production by mouse peritoneal macrophages (ELISA)
Format: cell-based, mice
Settings: Macrophage, 10 μM/L, 48 hours, read-out: Inhibitory rate (%) IL-12
Dear colleague, please return just the value in %, with no unit written.

QUERY: Could you please provide reported inhibition at 10 µM for CN(C)C(=O)COc1ccc(/C=C(\C#N)C(=O)NCc2cccnc2)cc1 [Example 84] ? Thanks!
RESULT: 38.9

QUERY: Could you please provide reported inhibition at 10 µM for COC(=O)/C=C/c1ccc(/C=C/C(=O)NCc2cccnc2)cc1 [Example 76] ? Thanks!
RESULT: 50

QUERY: Could you please provide reported inhibition at 10 µM for O=C(O)CSc1ccc(/C=C/C(=O)NCc2cccnc2)cc1 [Example 89] ? Thanks!
RESULT: 51.1

QUERY: Could you please provide reported inhibition at 10 µM for CCOC(=O)COc1ccc(/C=C(\C#N)C(=O)NCc2cccnc2)cc1 [Example 81] ? Thanks!
RESULT: 41

QUERY: Could you please provide reported inhibition at 10 µM for CCOC(=O)COc1ccc(/C(C)=C/C(=O)NCc2cccnc2)cc1 [Example 85] ? Thanks!
RESULT: 47.4

---

Exercise: state measured inhibition at 10 µM for each of the molecules provided.
Tested on: IL-12
Experiment: Inhibition of IL-12 production by mouse peritoneal macrophages (ELISA)
Assay type: cell-based, mice
Settings: Macrophage, 10 μM/L, 48 hours, read-out: Inhibitory rate (%) IL-12
Dear colleague, please return just the value in %, with no unit written.

QUERY: Please look at COC(=O)CCc1ccc(/C=C/C(=O)NCCc2ccccn2)cc1 [Example 78] and tell me its recorded inhibition at 10 µM on IL-12.
RESULT: 49.2

QUERY: Please look at COC(=O)CC(O)c1ccc(/C=C/C(=O)NCc2cccnc2)cc1 (stereo not shown) [Example 80] and tell me its recorded inhibition at 10 µM on IL-12.
RESULT: 52.3

QUERY: Please look at O=C(/C=C/c1ccc(OC(F)(F)C(=O)O)cc1)NCc1cccnc1 [Example 74] and tell me its recorded inhibition at 10 µM on IL-12.
RESULT: 51.1

QUERY: Please look at O=C(O)CCc1ccc(/C=C/C(=O)NCCc2ccccn2)cc1 [Example 79] and tell me its recorded inhibition at 10 µM on IL-12.
RESULT: 43

QUERY: Please look at N#C/C(=C\c1ccc(OCC(=O)O)cc1)C(=O)NCc1cccnc1 [Example 83] and tell me its recorded inhibition at 10 µM on IL-12.
RESULT: 40.9

QUERY: Please look at O=C(O)CNc1ccc(/C=C/C(=O)NCc2cccnc2)cc1 [Example 88] and tell me its recorded inhibition at 10 µM on IL-12.
RESULT: 26.4

QUERY: Please look at C/C(=C\C(=O)NCc1cccnc1)c1ccc(OCC(=O)O)cc1 [Example 86] and tell me its recorded inhibition at 10 µM on IL-12.
RESULT: 48.4

---

Exercise: state measured inhibition at 10 µM for each of the molecules provided.
Target: Thromboxane A2 Synthase (Rattus norvegicus, UniProt P49430)
Construct: centrifuged at 1,300 rpm for 7 minutes to obtain platelet rich plasma (PRP); from tissue; host or cells: platelet rich plasma (washed platelets) from the abdominal aorta blood of Sprague-Dawley rats
Sequence (P49430 1-533): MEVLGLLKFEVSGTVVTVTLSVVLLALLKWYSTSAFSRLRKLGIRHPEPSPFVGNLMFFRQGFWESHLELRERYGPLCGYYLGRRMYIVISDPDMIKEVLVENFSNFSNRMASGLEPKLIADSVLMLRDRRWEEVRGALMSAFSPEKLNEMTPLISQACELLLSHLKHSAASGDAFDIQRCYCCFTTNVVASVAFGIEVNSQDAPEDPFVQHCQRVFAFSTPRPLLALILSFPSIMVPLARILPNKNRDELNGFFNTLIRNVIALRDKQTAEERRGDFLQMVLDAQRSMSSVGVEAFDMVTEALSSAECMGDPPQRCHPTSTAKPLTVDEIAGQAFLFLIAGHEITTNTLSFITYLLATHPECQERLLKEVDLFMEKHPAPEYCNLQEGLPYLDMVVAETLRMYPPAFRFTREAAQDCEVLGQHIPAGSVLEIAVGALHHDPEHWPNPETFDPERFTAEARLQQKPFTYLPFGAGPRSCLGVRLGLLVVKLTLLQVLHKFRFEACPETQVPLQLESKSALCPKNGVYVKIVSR
Assay: Inhibitory effect on thromboxane A2 synthase: TXB2 in rat platelet rich plasma
Assay type: cell-based, rats
Details: 10 μmol/l, rat PRP, type IV collagen, 10 minutes; read-out: TXB2 induced by collagen (Inhibitory rate; %)

QUERY: Could you please provide reported inhibition at 10 µM for O=C(O)COc1ccccc1/C=C/C(=O)NCc1cccnc1 [Example 37] ? Thanks!
RESULT: 26%

QUERY: Could you please provide reported inhibition at 10 µM for CN(Cc1cccnc1)C(=O)/C=C/c1ccc(OCC(=O)O)cc1 [Example 72] ? Thanks!
RESULT: 46%

QUERY: Could you please provide reported inhibition at 10 µM for O=C(/C=C/c1ccccc1OCC(=O)NO)NCc1cccnc1 [Example 53] ? Thanks!
RESULT: 43%

QUERY: Could you please provide reported inhibition at 10 µM for CCOC(=O)COc1ccc(/C=C/C(=O)NCc2cccnc2)cc1 [Example 1] ? Thanks!
RESULT: 32%

QUERY: Could you please provide reported inhibition at 10 µM for CNC(=S)COc1ccccc1/C=C/C(=S)NCc1cccnc1 [Example 65] ? Thanks!
RESULT: 12%

QUERY: Could you please provide reported inhibition at 10 µM for NC(=O)COc1ccc(/C=C/C(=O)NCc2cccnc2)cc1 [Example 41] ? Thanks!
RESULT: 14%

QUERY: Could you please provide reported inhibition at 10 µM for O=C(O)COc1ccc(/C=C/C(=O)NCCc2ccccn2)cc1 [Example 73] ? Thanks!
RESULT: 47%

---

Target: Thromboxane A2 Synthase (Rattus norvegicus)
Construct: centrifuged at 1,300 rpm for 7 minutes to obtain platelet rich plasma (PRP); from tissue; host or cells: platelet rich plasma (washed platelets) from the abdominal aorta blood of Sprague-Dawley rats
Test: Inhibitory effect on thromboxane A2 synthase: TXB2 in rat platelet rich plasma
Format: cell-based, rats
Conditions: 10 μmol/l, rat PRP, arachidonic acid, 10 minutes; read-out: TXB2 induced by arachidonic acid (Inhibitory rate; %)
inhibition at 10 µM vs 30%: at or above is condition met, below is condition not met.

QUERY: Please indicate if the recorded inhibition at 10 µM for "CN(Cc1cccnc1)C(=O)/C=C/c1ccc(OCC(=O)O)cc1" meets or exceeds 30%.
RESULT: condition met

QUERY: Please indicate if the recorded inhibition at 10 µM for "O=C(/C=C/c1ccccc1OCC(=O)NO)NCc1cccnc1" meets or exceeds 30%.
RESULT: condition met

QUERY: Please indicate if the recorded inhibition at 10 µM for "NC(=O)COc1ccc(/C=C/C(=O)NCc2cccnc2)cc1" meets or exceeds 30%.
RESULT: condition met

QUERY: Please indicate if the recorded inhibition at 10 µM for "CNC(=S)COc1ccccc1/C=C/C(=S)NCc1cccnc1" meets or exceeds 30%.
RESULT: condition not met

QUERY: Please indicate if the recorded inhibition at 10 µM for "O=C(O)COc1ccccc1/C=C/C(=O)NCc1cccnc1" meets or exceeds 30%.
RESULT: condition not met

QUERY: Please indicate if the recorded inhibition at 10 µM for "O=C(O)COc1ccc(/C=C/C(=O)NCCc2ccccn2)cc1" meets or exceeds 30%.
RESULT: condition not met

QUERY: Please indicate if the recorded inhibition at 10 µM for "CCOC(=O)COc1ccc(/C=C/C(=O)NCc2cccnc2)cc1" meets or exceeds 30%.
RESULT: condition met
